target: Dihydroorotate dehydrogenase (quinone), mitochondrial (Plasmodium falciparum (isolate 3D7)) (UniProt Q08210); experiment: PfDHODH enzyme inhibitors, primary screen, biochemical, C-terminal His tag, absorbance 600 nm (AID 1175); conditions: DCIP absorbance 600 nm, called active from +8 up or from −8 down;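 note: recombinant parasite enzyme with a five histidine tag at its C terminus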
Sequence (Q08210 whole entry, looked up): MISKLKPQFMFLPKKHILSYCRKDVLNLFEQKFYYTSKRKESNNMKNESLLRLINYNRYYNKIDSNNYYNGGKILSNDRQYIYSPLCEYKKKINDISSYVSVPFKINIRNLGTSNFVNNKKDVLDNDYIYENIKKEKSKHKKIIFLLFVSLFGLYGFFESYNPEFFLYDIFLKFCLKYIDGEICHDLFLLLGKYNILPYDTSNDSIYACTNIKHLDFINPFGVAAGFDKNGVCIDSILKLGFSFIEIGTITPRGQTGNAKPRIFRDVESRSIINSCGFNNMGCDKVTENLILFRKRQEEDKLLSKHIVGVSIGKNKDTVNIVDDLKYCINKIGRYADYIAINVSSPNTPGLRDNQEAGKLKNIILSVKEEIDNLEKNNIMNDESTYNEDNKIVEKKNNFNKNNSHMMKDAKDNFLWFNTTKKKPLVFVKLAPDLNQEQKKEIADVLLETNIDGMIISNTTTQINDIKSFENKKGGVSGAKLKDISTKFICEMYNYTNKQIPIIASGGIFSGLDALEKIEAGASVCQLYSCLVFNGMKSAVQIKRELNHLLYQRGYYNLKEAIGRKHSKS
Calls of active or inactive are those of the source.
Select the correct class. Options are YES for active, NO for inactive and nothing else.

Record request — test call for `CCN1C(=O)[C@H]2[C@H]3[C@H](O)[C@H](O)CC(=NNC(=O)OCc4ccc(OC)cc4)[C@@H]3CC[C@H]2C1=O`
NO

Called result for `C[C@@H]1CC[C@H]2C(=O)O[C@@H](Cc3ccccc3)CN2[C@H]1c1ccc(Br)cc1`
NO

Which outcome was assigned to O=C1OCCC=C1C(O)CCc1ccccc1 (configuration not stated) in this test?
NO

----------
test: MM1S cell viability effects, profiling panel, calcein-AM fluorescence, 48 h, basal (AID 1165); settings: higher = more signal;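 note: viability of MM1S multiple myeloma cells under basal unstimulated conditions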
Parameter: z-score. Scope: all listed entries.
Please state the value as a number alone, without comment.

Recorded results for 4 compounds are shown here.
# COMPOUND, ENDPOINT_RESULT
data = [
    ("CO[C@H]1COC(=O)[C@H](C)NC(=O)[C@@H](C)COC(=O)[C@H]2CCCN2C(=O)CC=C[C@H]1C", -0.151),
    ("CCOC(=O)[C@H](CC(C)C)NC(=O)CCC1CC(OC(=O)NCc2ccc3c(c2)OCO3)CC2(CCCC(COC(=O)NCc3cccc(C(F)(F)F)c3)O2)O1 (stereo not given in full)", 0.0777),
    ("C=CC[C@@H]1C=C[C@H](ON=C(C)CCC(=O)OC[C@H]2O[C@H](C#Cc3ccccc3)C=C[C@@H]2Oc2ccc(C)cc2)[C@@H](CO)O1", 0.551),
    ("COc1cccc([C@H]2Oc3ccc(OC)cc3C(=NO[C@H](C)c3cn([C@H](CO)Cc4ccccc4)nn3)[C@@H]2O)c1", -0.0922),
]

Return the recorded z-score value; entry: COc1cccc([C@H]2Oc3ccc(OC)cc3C(=NOC(C)CN3CCCCc4nc(C)c(C)cc43)[C@@H]2O)c1 (stereo not given in full)
-1.02

Entry `CCCNC(=O)OC[C@H]1O[C@H](CCON=C(C)C)C=C[C@@H]1Oc1ccc(OC)cc1` needs its z-score filled in; supply it.
-0.39

Return value of z-score for input CCOC(=O)[C@H](Cc1ccccc1)NC(=O)CCC1CC(OC(=O)NCCc2ccc(F)cc2)CC2(CCCC(COC(=O)NCc3ccccc3)O2)O1 (stereo not given in full) , no commentary.
0.399

Item `CCOC(=O)NN=C1C[C@@H](O)[C@@H](O)[C@@H]2[C@@H]3C(=O)N(c4ccc(F)cc4F)C(=O)[C@@H]3CC[C@@H]12` : provide z-score
0.218

Provide only the value of recorded z-score for `CC(CCN1CCCCc2nc(C)c(C)cc21)=NO[C@H](C)c1cn([C@H](CO)Cc2ccccc2)nn1`
0.607

For `CC(=O)OC[C@H]1O[C@H](CCON=C2[C@H]3CCn4c(=O)n(-c5ccccc5)c(=O)n4[C@H]3[C@H](O)[C@@H]3O[C@H]23)C=C[C@@H]1OC(C)=O` , write its z-score.
-0.775

----------
tested on: XIP peptide (Xip251-270); assay: small-molecule binders of XIP peptide, primary screen, biochemical, small-molecule microarray, fluorescence 635/667 nm, 0.5 µg/mL protein (AID 1183); conditions: small-molecule microarray binding, fluorescence 635 nm; higher = more signal
Listing of entries alongside the reported composite z-score.
Number, no unit, nothing else.

Here are 2 molecules together with their reported answers.
# MOLECULE, TARGET_SYSTEM, composite z-score
data = [
    ("COC(=O)[C@H](C)NC(=O)CCC1CC(OC(=O)NCc2ccc3c(c2)OCO3)CC2(CCCC(COC(=O)NCC(c3ccccc3)c3ccccc3)O2)O1 (some centres undefined)", "XIP peptide (Xip251-270)", 0.699),
    ("CCCNC(=O)OC[C@H]1O[C@H](CCON=C(C)CCC(=O)OC[C@H]2O[C@H](c3ccccc3)C=C[C@@H]2Oc2ccc(OC)cc2)C=C[C@@H]1Oc1ccc(OC)cc1", "XIP peptide (Xip251-270)", -0.138),
]

Identify measured composite z-score corresponding to `C#CCCCON=C1C[C@@H](O)[C@@H](O)[C@@H]2[C@@H]3C(=O)N(c4ccc(F)cc4F)C(=O)[C@@H]3CC[C@H]12`
0.683

Return composite z-score for the following molecule: `CC[C@@H](c1ccccc1)n1c(=O)n2n(c1=O)[C@H]1[C@H](O)[C@@H]3O[C@@H]3C(=O)[C@H]1CC2`
0.0999

----------
target: Luciferin 4-monooxygenase (Photinus pyralis) (UniProt P08659); assay: firefly luciferase enzyme inhibitors, primary screen, biochemical, luminescence, purified enzyme, 2006 set (AID 1141); details: SteadyGlo luminescence, 30 min, higher = more signal, called active from +8 up or from −8 down;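 note: cell-free assay with purified firefly luciferase at 100 ng per well in PBS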
Sequence (P08659 whole entry, looked up): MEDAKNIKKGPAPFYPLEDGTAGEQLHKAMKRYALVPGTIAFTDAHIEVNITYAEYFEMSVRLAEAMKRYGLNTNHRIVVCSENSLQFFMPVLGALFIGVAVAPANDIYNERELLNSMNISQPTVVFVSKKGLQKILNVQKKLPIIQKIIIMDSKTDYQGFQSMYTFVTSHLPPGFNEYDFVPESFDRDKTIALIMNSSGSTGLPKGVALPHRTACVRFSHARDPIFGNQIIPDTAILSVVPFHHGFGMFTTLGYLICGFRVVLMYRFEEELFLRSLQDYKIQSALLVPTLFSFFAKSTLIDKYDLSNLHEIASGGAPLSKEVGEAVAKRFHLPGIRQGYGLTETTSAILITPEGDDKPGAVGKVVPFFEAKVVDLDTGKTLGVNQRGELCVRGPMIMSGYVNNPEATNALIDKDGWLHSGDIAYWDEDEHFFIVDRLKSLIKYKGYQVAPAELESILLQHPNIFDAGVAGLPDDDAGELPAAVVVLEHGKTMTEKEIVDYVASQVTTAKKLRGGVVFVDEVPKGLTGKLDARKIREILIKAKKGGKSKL
Please use yes (1) whenever z-score is not below 0.4, and no (0) whenever it is.

Known results for compounds:
# COMPOUND, GROUP
data = [
    ("CCc1cc2c(nc1CC)CCN(CCC(C)=NO[C@@H](C)c1cn([C@H](CO)Cc3ccccc3)nn1)C2", "no (0)"),
    ("CCc1cc2c(nc1CC)CCN(CCC(C)=NO[C@H](C)c1cn([C@@H]3COC[C@H]3O)nn1)C2", "no (0)"),
    ("CC(C)(C)N1C(=O)[C@H]2[C@H]3[C@H](O)[C@H](O)CC(=O)[C@@H]3CC[C@H]2C1=O", "no (0)"),
    ("CC(C)=CCCC(C)=CCON=C1C[C@@H](O)[C@@H](O)[C@@H]2[C@@H]3C(=O)N(C(C)(C)C)C(=O)[C@@H]3CC[C@@H]12", "yes (1)"),
]

Field: next compound
Can CCOC(=O)[C@H](CC(C)C)NC(=O)CCC1CC(OC(=O)NCCc2ccc(F)cc2)CC2(CCCC(COC(=O)NCC(c3ccccc3)c3ccccc3)O2)O1 (stereo not given in full) be said to have z-score at or above 0.4?
yes (1)

----------
Item-by-item account of z-score
experiment: MM1S myeloma cell viability, profiling panel, resazurin fluorescence, basal, 24 h, PK04 Diversity Set (AID 1174); conditions: higher = more signal, called active from +8 up or from −8 down;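 note: MM1S multiple myeloma cell line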
// print number alone

# COMPOUND, z-score
records = [
    ("COC(=O)[C@H](C)NC(=O)CCC1CC(OC(=O)NCc2cccc3ccccc23)CC2(CCCC(COC(=O)NCC(c3ccccc3)c3ccccc3)O2)O1 (some centres undefined)", 0.945),
    ("O=C1C[C@@H](O)[C@@H](O)[C@@H]2[C@@H]3C(=O)N(Cc4ccccc4)C(=O)[C@@H]3CC[C@@H]12", 0.144),
    ("CCOC(=O)[C@H](CC(C)C)NC(=O)CCC1CC(OC(=O)NCc2cccc3ccccc23)CC2(CCCC(COC(=O)NCc3cccc(C(F)(F)F)c3)O2)O1 (some centres undefined)", 0.0223),
    ("COc1cccc([C@H]2Oc3ccc(OC)cc3C(=NOC(C)CN3CCCCc4nc(C)c(C)cc43)[C@@H]2O)c1 (some centres undefined)", -1.16),
    ("CC(C)C[C@H](NC(=O)CCC1CC(OC(=O)NCc2cccc3ccccc23)CC2(CCCC(COC(=O)NCc3ccccc3)O2)O1)C(=O)NCC(c1ccccc1)c1ccccc1 (some centres undefined)", 0.284),
    ("COC(=O)NCC=Cc1nc(CCCO)co1", -0.295),
    ("COc1cccc([C@H]2Oc3ccc(OC)cc3C(=NOC[C@@H](O)COCc3ccco3)[C@@H]2O)c1", -1.19),
    ("COC(=O)[C@@H]1CC[C@H](C)[C@@H](c2ccc(C)cc2)N1C(=O)c1ccc(C=NOCC[C@@H]2C=C[C@H](OC(C)=O)[C@@H](COC(C)=O)O2)cc1", -0.761),
]

Determine from records and report z-score for `C=COC[C@@H]1CN2[C@@H](CC[C@@H](C)[C@@H]2c2ccc(Br)cc2)C(=O)O1`
-0.345

Consider the compound O=C1OCCC=C1C(O)CCc1ccccc1 (centres undefined) and give its recorded z-score.
-0.649

Let me know recorded z-score for `CCOC(=O)NN=C1C[C@@H](O)[C@@H](O)[C@@H]2[C@@H]3C(=O)N([C@@H](C)c4ccccc4)C(=O)[C@@H]3CC[C@H]12` , thanks.
-0.495

// Input: `O=C1[C@H]2[C@H]3[C@H](O)[C@H](O)CC(=NOC[C@@H](O)COCc4ccco4)[C@H]3CC[C@H]2C(=O)N1Cc1ccccc1` . Output its z-score only.
0.737

----------
assay: P. aeruginosa biofilm formation inhibitors, primary screen, PAO1 strain, BacTiter-Glo luminescence, LB-PBS (AID 1144); conditions: 12 h, higher = more signal
Label class 1 when z-score is at or above 0.07; otherwise label class 0.

Previously resolved entries follow.
# COMPOUND, GROUP
rows = [
    ("CCOC(=O)NN=C1C[C@@H](O)[C@@H](O)[C@@H]2[C@@H]3C(=O)N([C@@H](C)c4ccccc4)C(=O)[C@@H]3CC[C@H]12", "class 1"),
    ("CCOC(=O)NN=C1C[C@@H](O)[C@@H](O)[C@@H]2[C@@H]3C(=O)N(c4cccc(Oc5ccccc5)c4)C(=O)[C@@H]3CC[C@@H]12", "class 1"),
    ("COC(=O)[C@H]1[C@@H](O)[C@@]2(O)c3ccccc3O[C@@]2(c2ccccc2)[C@@H]1c1ccccc1", "class 1"),
    ("CCOC(=O)[C@H](CC(C)C)NC(=O)CCC1CC(OC(=O)NCCc2ccc(F)cc2)CC2(CCCC(COC(=O)NCCc3ccc(Cl)cc3)O2)O1 (stereo partly specified)", "class 0"),
    ("COC(=O)[C@H](C)NC(=O)CCC1CC(OC(=O)NCCc2ccc(F)cc2)CC2(CCCC(COC(=O)NCCC(C)C)O2)O1 (stereo partly specified)", "class 0"),
]

Is z-score for O=C1CCCC(C2=CCCCC2=O)C1 (stereo unspecified) at or above 0.07?
class 0
